testedSystem: human orexin-2 receptor (Homo sapiens (Human), UniProt O43614)
Sequence (O43614 whole entry): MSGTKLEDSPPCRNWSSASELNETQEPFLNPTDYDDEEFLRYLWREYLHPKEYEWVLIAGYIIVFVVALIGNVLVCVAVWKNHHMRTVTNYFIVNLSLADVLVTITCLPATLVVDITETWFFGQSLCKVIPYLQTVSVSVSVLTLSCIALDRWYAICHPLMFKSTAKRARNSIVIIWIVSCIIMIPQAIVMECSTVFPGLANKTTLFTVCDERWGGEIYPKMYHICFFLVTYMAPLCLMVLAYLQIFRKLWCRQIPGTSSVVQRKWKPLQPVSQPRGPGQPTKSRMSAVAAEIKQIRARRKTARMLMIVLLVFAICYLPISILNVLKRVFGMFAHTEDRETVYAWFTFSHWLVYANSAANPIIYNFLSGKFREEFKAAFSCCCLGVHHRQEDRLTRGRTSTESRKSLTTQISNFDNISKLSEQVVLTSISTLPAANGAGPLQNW
assayInfo: FLIPR Ca2+ Flux Assay, orexin-2 receptor antagonism in CHO cells
assaySetup: CHO cells expressing the human orexin-2 receptor; agonist 70 pM Ala-6,12 orexin-A; read-out: hOX2 FLIPR IC50
Each entry below carries its reported IC50.
Numbers only here, please. The scale is nM.

Consider the reported IC50 for these compounds:
Query block: Give IC50 (human orexin-2 receptor (Homo sapiens (Human), UniProt O43614)) of the following compound: "CC(C)c1cn2ccnc(O[C@@H]3CC[C@@H](C)N(C(=O)c4ccccc4-n4nccn4)C3)c2n1"
Result block: 49

Query block: Give IC50 (human orexin-2 receptor (Homo sapiens (Human), UniProt O43614)) of the following compound: "C[C@@H]1CC[C@@H](Oc2nccn3c(C(F)F)cnc23)CN1C(=O)c1cscc1-c1ncccn1"
Result block: 44.9

Further cases:
Query block: Give IC50 (human orexin-2 receptor (Homo sapiens (Human), UniProt O43614)) of the following compound: "C=Cc1cnc2c(O[C@@H]3CC[C@@H](C)N(C(=O)c4ccccc4-n4nccn4)C3)nccn12"
Result block: 21

Query block: Give IC50 (human orexin-2 receptor (Homo sapiens (Human), UniProt O43614)) of the following compound: "Cc1cn2ccnc(O[C@@H]3CC[C@@H](C)N(C(=O)c4ccccc4CS(C)(=O)=O)C3)c2n1"
Result block: 46.2

Query block: Give IC50 (human orexin-2 receptor (Homo sapiens (Human), UniProt O43614)) of the following compound: "C[C@@H]1CC[C@@H](Oc2nccn3c(C#N)cnc23)CN1C(=O)c1ccccc1-n1nccn1"
Result block: 73.7

Query block: Give IC50 (human orexin-2 receptor (Homo sapiens (Human), UniProt O43614)) of the following compound: "COC(=O)c1ccccc1C(=O)N1C[C@H](Oc2nccn3c(C(F)F)cnc23)CC[C@H]1C"
Result block: 24.9

Query block: Give IC50 (human orexin-2 receptor (Homo sapiens (Human), UniProt O43614)) of the following compound: C[C@@H]1CC[C@@H](Oc2nccn3ccnc23)CN1C(=O)c1ccccc1CS(C)(=O)=O [Example 2]
Result block: 59

Data provenance is patent US10526336B2.
